Protocol text: Phase 1 Study S-(1)-01 plasma pharmacokinetics (weekly x3, 28-day cycle)
Format: in vivo, human
Measurement setup: human, plasma, iv, 28 mg/m2; 28 mg/m^2 i.v., first dose, 50:50 Cremophor EL-P/ethanol formulation; read-out: AUC0-24
Protocol: Both trials have enrolled patients with advanced solid tumors, non-Hodgkin's lymphoma or Hodgkin's lymphoma that have recurred or progressed following at least standard therapy; patients with malignancies for which there is no standard therapy; patients who are not candidates for standard therapy; or patients who have chosen not to pursue standard therapy. […] Plasma pharmacokinetics of S-(1) were assessed following the first dose of S-(1) in both studies. […]

Molecule	AUC(0-t) / ng·h/mL
C=C[C@H]1O[C@H]2C[C@H]3OC[C@@]3(OC(C)=O)[C@H]3[C@H](OC(=O)c4ccccc4)[C@]4(C(C)(C)O)CC(OC(=O)[C@H](O)C(CC(C)C)NC(=O)OC(C)(C)C)C(C)=C4[C@H](OC(C)=O)[C@H](O1)[C@]23C (stereo partly shown)	682

###

Protocol text: Phase 1 Study S-(1)-01 plasma pharmacokinetics (weekly x3, 28-day cycle)
Type: in vivo, human
Measurement setup: human, plasma, iv, 14 mg/m2; 14 mg/m^2 i.v., first dose, 50:50 Cremophor EL-P/ethanol formulation; read-out: t1/2 (converted)

Compound	half-life / h
C=C[C@H]1O[C@H]2C[C@H]3OC[C@@]3(OC(C)=O)[C@H]3[C@H](OC(=O)c4ccccc4)[C@]4(C(C)(C)O)CC(OC(=O)[C@H](O)C(CC(C)C)NC(=O)OC(C)(C)C)C(C)=C4[C@H](OC(C)=O)[C@H](O1)[C@]23C (stereo partly shown)	8.4

###

Protocol text: Phase 1 Study S-(1)-01 plasma pharmacokinetics (weekly x3, 28-day cycle)
Type: in vivo, human
Measurement setup: human, plasma, iv, 127.5 mg/m2; 127.5 mg/m^2 i.v., first dose, 50:50 Cremophor EL-P/ethanol formulation; read-out: t1/2 (converted)
Metric name: half-life (h)

Compound	Endpoint result
C=C[C@H]1O[C@H]2C[C@H]3OC[C@@]3(OC(C)=O)[C@H]3[C@H](OC(=O)c4ccccc4)[C@]4(C(C)(C)O)CC(OC(=O)[C@H](O)C(CC(C)C)NC(=O)OC(C)(C)C)C(C)=C4[C@H](OC(C)=O)[C@H](O1)[C@]23C (stereo partly shown)	8.6

###

Protocol text: S-(1) pharmacokinetics in mouse, plasma and brain levels after single IV dose
Type: in vivo, CD-1 mice
Measurement setup: CD-1, mouse; Brain; single IV 20 mg/kg
Metric name: Cmax

Compound	Endpoint result
C=C[C@H]1O[C@H]2C[C@H]3OC[C@@]3(OC(C)=O)[C@H]3[C@H](OC(=O)c4ccccc4)[C@]4(C(C)(C)O)CC(OC(=O)[C@H](O)C(CC(C)C)NC(=O)OC(C)(C)C)C(C)=C4[C@H](OC(C)=O)[C@H](O1)[C@]23C (stereo partly drawn) [S-(1)]	3.73 µg/mL

###

Protocol text: Phase 1 Study S-(1)-02 plasma pharmacokinetics (every 21 days)
Type: in vivo, human
Measurement setup: human, plasma, iv, 185 mg/m2; 185 mg/m^2 i.v., first dose, 15:85 Cremophor EL-P/ethanol formulation; read-out: t1/2 (converted)

Compound	Result unit	half-life
C=C[C@H]1O[C@H]2C[C@H]3OC[C@@]3(OC(C)=O)[C@H]3[C@H](OC(=O)c4ccccc4)[C@]4(C(C)(C)O)CC(OC(=O)[C@H](O)C(CC(C)C)NC(=O)OC(C)(C)C)C(C)=C4[C@H](OC(C)=O)[C@H](O1)[C@]23C (stereo partly shown)	h	3.43

###

Protocol text: Injection formulation administered IV and orally: mouse PK parameters
Type: in vivo
Measurement setup: mouse, in vivo; Oral 10 mg/kg, injection formulation

Compound	AUC(0-inf), µM·h
C=C[C@H]1O[C@H]2C[C@H]3OC[C@@]3(OC(C)=O)[C@H]3[C@H](OC(=O)c4ccccc4)[C@]4(C(C)(C)O)CC(OC(=O)[C@H](O)C(CC(C)C)NC(=O)OC(C)(C)C)C(C)=C4[C@H](OC(C)=O)[C@H](O1)[C@]23C (stereo partly shown)	3.61

###

Protocol text: Phase 1 Study S-(1)-02 plasma pharmacokinetics (every 21 days)
Assay type: in vivo, human
Measurement setup: human, plasma, iv, 185 mg/m2; 185 mg/m^2 i.v., first dose, 15:85 Cremophor EL-P/ethanol formulation; read-out: AUC0-24

Compound	AUC(0-t) (ng·h/mL)
C=C[C@H]1O[C@H]2C[C@H]3OC[C@@]3(OC(C)=O)[C@H]3[C@H](OC(=O)c4ccccc4)[C@]4(C(C)(C)O)CC(OC(=O)[C@H](O)C(CC(C)C)NC(=O)OC(C)(C)C)C(C)=C4[C@H](OC(C)=O)[C@H](O1)[C@]23C (stereo partly shown)	7260

###

Protocol text: Injection formulation administered IV and orally: mouse PK parameters
Type: in vivo
Measurement setup: mouse, in vivo; Oral 10 mg/kg, injection formulation

Compound	Tmax (h)
C=C[C@H]1O[C@H]2C[C@H]3OC[C@@]3(OC(C)=O)[C@H]3[C@H](OC(=O)c4ccccc4)[C@]4(C(C)(C)O)CC(OC(=O)[C@H](O)C(CC(C)C)NC(=O)OC(C)(C)C)C(C)=C4[C@H](OC(C)=O)[C@H](O1)[C@]23C (stereo partly drawn) [S-(1)]	6

###

Protocol text: S-(1) pharmacokinetics in mouse, plasma and brain levels after single IV dose
Format: in vivo, CD-1 mice
Measurement setup: CD-1, mouse; Plasma; single IV 20 mg/kg

Molecule	Result unit	AUC(0-inf)
C=C[C@H]1O[C@H]2C[C@H]3OC[C@@]3(OC(C)=O)[C@H]3[C@H](OC(=O)c4ccccc4)[C@]4(C(C)(C)O)CC(OC(=O)[C@H](O)C(CC(C)C)NC(=O)OC(C)(C)C)C(C)=C4[C@H](OC(C)=O)[C@H](O1)[C@]23C (stereo partly drawn) [S-(1)]	ng·h/mL	17000

###

Protocol text: Phase 1 Study S-(1)-02 plasma pharmacokinetics (every 21 days)
Type: in vivo, human
Measurement setup: human, plasma, iv, 84 mg/m2; 84 mg/m^2 i.v., first dose, 15:85 Cremophor EL-P/ethanol formulation; read-out: AUC0-24

Molecule	AUC(0-t) / µg·h/mL
C=C[C@H]1O[C@H]2C[C@H]3OC[C@@]3(OC(C)=O)[C@H]3[C@H](OC(=O)c4ccccc4)[C@]4(C(C)(C)O)CC(OC(=O)[C@H](O)C(CC(C)C)NC(=O)OC(C)(C)C)C(C)=C4[C@H](OC(C)=O)[C@H](O1)[C@]23C (stereo partly drawn) [S-(1)]	3.71

###

Protocol text: Phase 1 Study S-(1)-02 plasma pharmacokinetics (every 21 days)
Assay type: in vivo, human
Measurement setup: human, plasma, iv, 56 mg/m2; 56 mg/m^2 i.v., first dose, 15:85 Cremophor EL-P/ethanol formulation; read-out: t1/2 (converted)

Molecule	Result unit	half-life
C=C[C@H]1O[C@H]2C[C@H]3OC[C@@]3(OC(C)=O)[C@H]3[C@H](OC(=O)c4ccccc4)[C@]4(C(C)(C)O)CC(OC(=O)[C@H](O)C(CC(C)C)NC(=O)OC(C)(C)C)C(C)=C4[C@H](OC(C)=O)[C@H](O1)[C@]23C (stereo partly shown)	h	8.96

###

Protocol text: Injection formulation administered IV and orally: mouse PK parameters
Type: in vivo
Measurement setup: mouse, in vivo; IV 10 mg/kg; read-out: Vdss
Metric name: Vd

Molecule	Metric name	Endpoint result
C=C[C@H]1O[C@H]2C[C@H]3OC[C@@]3(OC(C)=O)[C@H]3[C@H](OC(=O)c4ccccc4)[C@]4(C(C)(C)O)CC(OC(=O)[C@H](O)C(CC(C)C)NC(=O)OC(C)(C)C)C(C)=C4[C@H](OC(C)=O)[C@H](O1)[C@]23C (stereo partly drawn) [S-(1)]	Vd	13.3 L/kg

###

Protocol text: Phase 1 Study S-(1)-02 plasma pharmacokinetics (every 21 days)
Format: in vivo, human
Measurement setup: human, plasma, iv, 126 mg/m2; 126 mg/m^2 i.v., first dose, 15:85 Cremophor EL-P/ethanol formulation; read-out: t1/2 (converted)

Molecule	half-life [h]
C=C[C@H]1O[C@H]2C[C@H]3OC[C@@]3(OC(C)=O)[C@H]3[C@H](OC(=O)c4ccccc4)[C@]4(C(C)(C)O)CC(OC(=O)[C@H](O)C(CC(C)C)NC(=O)OC(C)(C)C)C(C)=C4[C@H](OC(C)=O)[C@H](O1)[C@]23C (stereo partly shown)	10.6

###

Protocol text: Injection formulation administered IV and orally: mouse PK parameters
Format: in vivo
Measurement setup: mouse, in vivo; IV 10 mg/kg

Compound	Result unit	clearance
C=C[C@H]1O[C@H]2C[C@H]3OC[C@@]3(OC(C)=O)[C@H]3[C@H](OC(=O)c4ccccc4)[C@]4(C(C)(C)O)CC(OC(=O)[C@H](O)C(CC(C)C)NC(=O)OC(C)(C)C)C(C)=C4[C@H](OC(C)=O)[C@H](O1)[C@]23C (stereo partly drawn) [S-(1)]	mL/min/kg	24.8
